molecular target: SARS-CoV-2 spike protein S on live virus, Alpha variant (SARS-CoV-2 (Alpha variant), UniProt P0DTC2 14-1273); experiment: cell-based or functional assay
Experimental Readout: LVNA IC50 (nM)
One number for each entry, in nM.

| Binder | Unit Of Measure | Obs Value |
| --- | --- | --- |
| NRCoV2-1d VHH-Fc (Fc fusion, bivalent VHH-Fc) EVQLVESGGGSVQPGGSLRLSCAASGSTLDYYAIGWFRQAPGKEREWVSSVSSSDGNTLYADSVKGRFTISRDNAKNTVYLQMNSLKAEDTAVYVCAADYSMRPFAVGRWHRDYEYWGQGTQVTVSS | nM | 0.37 |

Could I get LVNA IC50 for every one of these entries?
1. NRCoV2-MRed05 VHH-Fc (Fc fusion, bivalent VHH-Fc) EVQLVESGGGLVQPGGSLRLSCAASGFTLDYYAIGWFRQAPGKEREGVSCISSSDGSTLYADSVKGRFTISRDNAKNTVYLQMNSLKPEDTAVYYCATGPQAYYSGSYYFQCPQAGMDYWGKGTQVTVSS
2. NRCoV2-SR01 VHH-Fc (Fc fusion, bivalent VHH-Fc) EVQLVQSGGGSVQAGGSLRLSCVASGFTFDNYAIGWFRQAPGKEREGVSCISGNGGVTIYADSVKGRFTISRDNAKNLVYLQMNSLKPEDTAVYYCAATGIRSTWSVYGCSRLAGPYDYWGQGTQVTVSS

[0.13, 3.77]

Could I get LVNA IC50 for every one of these entries?
1. NRCoV2-SR02 VHH-Fc (Fc fusion, bivalent VHH-Fc) EVQLVDSGGGLVQAGGSLRLSCTASEFTLNYYSIGWFRQSPGKEREGVSCIRYSGGGIDYADSVKGRFTISRDNAKNTVYLTMNSLKPEDTAVYYCAADRLYSRACPTAGGRNYWGQGTQVTVSS
2. NRCoV2-20 VHH-Fc (Fc fusion, bivalent VHH-Fc) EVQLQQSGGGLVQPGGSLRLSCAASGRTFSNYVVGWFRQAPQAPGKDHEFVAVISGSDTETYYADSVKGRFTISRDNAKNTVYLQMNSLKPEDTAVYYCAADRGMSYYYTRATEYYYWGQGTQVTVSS

9.05
1.94

Could I get LVNA IC50 for every one of these entries?
1. NRCoV2-04 VHH-Fc (Fc fusion, bivalent VHH-Fc) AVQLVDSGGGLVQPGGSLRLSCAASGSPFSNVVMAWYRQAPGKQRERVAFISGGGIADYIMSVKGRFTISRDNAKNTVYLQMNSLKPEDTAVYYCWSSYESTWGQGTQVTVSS
2. NRCoV2-MRed04 VHH-Fc (Fc fusion, bivalent VHH-Fc) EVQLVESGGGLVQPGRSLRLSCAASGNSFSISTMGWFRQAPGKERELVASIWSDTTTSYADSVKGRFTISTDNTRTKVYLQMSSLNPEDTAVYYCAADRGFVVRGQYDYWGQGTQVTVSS

1: 2.3; 2: 4.5
